measured-target: T1, GST-tagged DIX domain of mouse DVL1 (residues 1-106) with Y17D (mouse, UniProt P51141 1-106, Y17D)
T1 construct: DIX domain of mouse DVL1, residues 1-106, Y17D to eliminate DIX aggregation; A longer construct 1-200 (DIX-L) is named in the methods but tied to no experiment; also called DVL DIX; GST-DVL; source: E. coli, purified (glutathione-agarose beads, size-exclusion chromatography)
T1 sequence (looked up): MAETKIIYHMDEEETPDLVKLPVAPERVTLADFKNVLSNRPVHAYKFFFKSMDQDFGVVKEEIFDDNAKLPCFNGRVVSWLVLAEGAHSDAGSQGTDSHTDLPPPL
method-description: pull-down; GST-DIX (or GST) 0.5 μg and His-tagged PIP5K1 0.5 μg in 200 μl of 10 mM HEPES (pH 7.4), 150 mM NaCl, 0.2% Triton, 0.01% SDS, 3 mM dithiothreitol, 10% glycerol; 4 °C overnight; glutathione beads; western blotting
run-parameters: both partners purified
observed-property: change in the interaction against the wild type

Inquiry: Quick check: change in the interaction against the wild type of zebrafish PIP5K1A kinase catalytic domain, L150A mutant (domain or fragment, kinase catalytic domain of zebrafish PIP5K1Aα, residues 49-431; C-terminal 'Leu-Glu' that precedes the His6 tag; also called Leu-150 to Ala; source: E. coli BL21-CodonPlus(DE3)-RIL, purified in the same way as the wild-type protein; not shown: His6, C-terminal, kept) MASTGETTYKKTTSSALKGAIQLGITHSVGSLSQKPERDVLMQDFEVVESIFFPSQGSSSTPGHHHGDFKFKTYAPIAFRYFREMFGIRPDDYLYSLCNEPLIEASNPGASGSLFYVSSDDEFIIKTVQHKEAEFLQTLLPGYFMNLNQNMRTLLPKFYGLYCVQADGKNIRIVVMNNLLPRAVPMHLKFDLKGSTYKRRASPKERSKGVPTYKDLDFMQDMPEGILLENDHYTALSRTMQRDCRVLQSFKIMDYSLLVGIHILHRAGEEASTAVPDTQKKGQGQKPLYCTAIESIQGESKSKTSPQPYESMGGIPAFNSKGERLLVFIGIIDILQSYRLVKKLEHSWKALLHDGDTVSVHRPSFYADRFQKFMCSTVFRKSQLKTLE ?
Reply text: ≤ 20%
